Assay: Aqueous solubility of Formula (1) free base as a function of pH
Assay type: physicochemical
Details: aqueous buffer solution, pH 5, aqueous buffer, thermodynamic from solid; effective pH at the end of the test 5.0; read-out: Solubility
Measured Endpoint: solubility (µg/mL)
Numbers only here, please. The scale is µg/mL.

[in] Write down solubility measured for item CC#CC(=O)N1CCC[C@H]1c1nc(-c2ccc(C(=O)Nc3ccccn3)cc2)c2c(N)nccn12
[out] 690

###

Assay: Relative stability of solid forms (water activity, suspension equilibration, storage)
Assay type: physicochemical
Details: crystalline forms of the free base
Measured Endpoint: Stability at Room Temperature

CC#CC(=O)N1CCC[C@H]1c1nc(-c2ccc(C(=O)Nc3ccccn3)cc2)c2c(N)nccn12 [Form VIII] = metastable
CC#CC(=O)N1CCC[C@H]1c1nc(-c2ccc(C(=O)Nc3ccccn3)cc2)c2c(N)nccn12 [Form VI] = metastable
CC#CC(=O)N1CCC[C@H]1c1nc(-c2ccc(C(=O)Nc3ccccn3)cc2)c2c(N)nccn12 [Form VII] = metastable
CC#CC(=O)N1CCC[C@H]1c1nc(-c2ccc(C(=O)Nc3ccccn3)cc2)c2c(N)nccn12 [Form IV] = metastable
CC#CC(=O)N1CCC[C@H]1c1nc(-c2ccc(C(=O)Nc3ccccn3)cc2)c2c(N)nccn12 [Form III] = metastable

Let us move to another entry and its Stability at Room Temperature.
[in] Write down Stability at Room Temperature measured for item CC#CC(=O)N1CCC[C@H]1c1nc(-c2ccc(C(=O)Nc3ccccn3)cc2)c2c(N)nccn12 [Form V]
[out] metastable

###

Assay: Solubility of Form I by HPLC in solvents and water-solvent mixtures
Format: physicochemical
Details: organic solvent or mixture, thermodynamic from solid; 1-propanol, 60° C.; read-out: Solubility (S, mg/mL)
Protocol: The solubility of recrystallized Formula (1) Form I was tested in various water-solvent mixtures and non-aqueous solvents.
Measured Endpoint: solubility (mg/mL)
Numbers only here, please. The scale is mg/mL.

[in] Write down solubility measured for item CC#CC(=O)N1CCC[C@H]1c1nc(-c2ccc(C(=O)Nc3ccccn3)cc2)c2c(N)nccn12 [Form I]
[out] 14.4

###

Experiment: Solubility of Form I by HPLC in solvents and water-solvent mixtures
Format: physicochemical
Conditions: organic solvent or mixture, thermodynamic from solid; acetone at RFT; read-out: Solubility (S, mg/mL)
Method: The solubility of recrystallized Formula (1) Form I was tested in various water-solvent mixtures and non-aqueous solvents.
Measured Endpoint: solubility (mg/mL)
Numbers only here, please. The scale is mg/mL.

[in] Write down solubility measured for item CC#CC(=O)N1CCC[C@H]1c1nc(-c2ccc(C(=O)Nc3ccccn3)cc2)c2c(N)nccn12 [Form I]
[out] 10

###

Assay: Approximate solubility of Form I by stepwise dilution of a suspension
Format: physicochemical
Details: organic solvent or mixture, thermodynamic from solid; N-methyl-2-pyrrolidone, NMP; read-out: Solubility [S, mg/mL]
Measured Endpoint: solubility

[in] Write down solubility measured for item CC#CC(=O)N1CCC[C@H]1c1nc(-c2ccc(C(=O)Nc3ccccn3)cc2)c2c(N)nccn12 [Form I]
[out] 39 to 49 mg/mL

###

Assay: Approximate solubility of Form I by stepwise dilution of a suspension
Assay type: physicochemical
Conditions: methanol, organic solvent or mixture, thermodynamic from solid; read-out: Solubility [S, mg/mL]
Measured Endpoint: solubility

[in] Write down solubility measured for item CC#CC(=O)N1CCC[C@H]1c1nc(-c2ccc(C(=O)Nc3ccccn3)cc2)c2c(N)nccn12 [Form I]
[out] ~14 mg/mL

###

Assay: Aqueous solubility of Formula (1) free base as a function of pH
Type: physicochemical
Settings: aqueous buffer solution, pH 7.3, aqueous buffer, thermodynamic from solid; effective pH at the end of the test 7.3; read-out: Solubility
Measured Endpoint: solubility
Show the value, then the unit it is measured in.

[in] Write down solubility measured for item CC#CC(=O)N1CCC[C@H]1c1nc(-c2ccc(C(=O)Nc3ccccn3)cc2)c2c(N)nccn12
[out] 49 µg/mL

###

Assay: pKa by ultraviolet (UV) spectrometric titration
Format: physicochemical
Conditions: aqueous solution, pH 1.5, six titrations, pH 1.5-12.5, 30-18 μM, aqueous; read-out: pKa, average value (third)
Measured Endpoint: pKa
The response must contain the number and no unit.

[in] Write down pKa measured for item CC#CC(=O)N1CCC[C@H]1c1nc(-c2ccc(C(=O)Nc3ccccn3)cc2)c2c(N)nccn12
[out] 12.1

###

Assay: Solubility of Form I by HPLC in solvents and water-solvent mixtures
Format: physicochemical
Conditions: organic solvent or mixture, thermodynamic from solid; ethanol-water 96:4, 25° C.; read-out: Solubility (S, mg/mL)
Measured Endpoint: solubility (mg/mL)
Numbers only here, please. The scale is mg/mL.

[in] Write down solubility measured for item CC#CC(=O)N1CCC[C@H]1c1nc(-c2ccc(C(=O)Nc3ccccn3)cc2)c2c(N)nccn12 [Form I]
[out] 10

###

Assay: Solubility of Form I by HPLC in solvents and water-solvent mixtures
Assay type: physicochemical
Details: organic solvent or mixture, thermodynamic from solid; THF, 25° C.; read-out: Solubility (S, mg/mL)
Measured Endpoint: solubility (mg/mL)
Numbers only here, please. The scale is mg/mL.

[in] Write down solubility measured for item CC#CC(=O)N1CCC[C@H]1c1nc(-c2ccc(C(=O)Nc3ccccn3)cc2)c2c(N)nccn12 [Form I]
[out] 20.4

###

Test: Solubility of Form I by HPLC in solvents and water-solvent mixtures
Assay type: physicochemical
Settings: organic solvent or mixture, thermodynamic from solid; MEK, 25° C.; read-out: Solubility (S, mg/mL)
Measured Endpoint: solubility (mg/mL)
Numbers only here, please. The scale is mg/mL.

[in] Write down solubility measured for item CC#CC(=O)N1CCC[C@H]1c1nc(-c2ccc(C(=O)Nc3ccccn3)cc2)c2c(N)nccn12 [Form I]
[out] 3.7

###

Assay: Aqueous solubility of Formula (1) free base as a function of pH
Assay type: physicochemical
Settings: aqueous HCl solution, pH 1, simulated gastric fluid, thermodynamic from solid; HCl solution having a pH of about 1; read-out: solubility in HCl solution
Measured Endpoint: solubility

[in] Write down solubility measured for item CC#CC(=O)N1CCC[C@H]1c1nc(-c2ccc(C(=O)Nc3ccccn3)cc2)c2c(N)nccn12 [Formula (1)]
[out] ≥ 150 mg/mL

###

Test: Approximate solubility of Form I by stepwise dilution of a suspension
Assay type: physicochemical
Conditions: ethanol:water 95:5, organic solvent or mixture, thermodynamic from solid; read-out: Solubility [S, mg/mL]
Measured Endpoint: solubility

[in] Write down solubility measured for item CC#CC(=O)N1CCC[C@H]1c1nc(-c2ccc(C(=O)Nc3ccccn3)cc2)c2c(N)nccn12 [Form I]
[out] ~8 mg/mL

###

Assay: Solubility of Form I by HPLC in solvents and water-solvent mixtures
Type: physicochemical
Settings: organic solvent or mixture, thermodynamic from solid; ethanol-water 96:4, 60° C.; read-out: Solubility (S, mg/mL)
Measured Endpoint: solubility

[in] Write down solubility measured for item CC#CC(=O)N1CCC[C@H]1c1nc(-c2ccc(C(=O)Nc3ccccn3)cc2)c2c(N)nccn12 [Form I]
[out] 24.7 mg/mL

###

Test: pKa by ultraviolet (UV) spectrometric titration
Type: physicochemical
Conditions: aqueous solution, pH 2, fast-UV triple titration, pH 2-12, 31-19 μM, aqueous; read-out: pKa, average value (first)
Measured Endpoint: pKa

[in] Write down pKa measured for item CC#CC(=O)N1CCC[C@H]1c1nc(-c2ccc(C(=O)Nc3ccccn3)cc2)c2c(N)nccn12 [Formula (1)]
[out] ~3.6

###

List of Tapped density values.
Experiment: Bulk and tapped density of salts
Assay type: physicochemical
Details: 10 gram sample
Numbers only here, please. The scale is g/mL.

Reference set (2 entries):
CC#CC(=O)N1CCC[C@H]1c1nc(-c2ccc(C(=O)Nc3ccccn3)cc2)c2c(N)nccn12.O=C(O)C(O)C(O)C(=O)O [L-Tartrate] = 0.50
CC#CC(=O)N1CCC[C@H]1c1nc(-c2ccc(C(=O)Nc3ccccn3)cc2)c2c(N)nccn12.O=P(O)(O)O [Phosphate] = 0.48

[in] Write down Tapped density measured for item CC#CC(=O)N1CCC[C@H]1c1nc(-c2ccc(C(=O)Nc3ccccn3)cc2)c2c(N)nccn12.O=C(O)/C=C/C(=O)O [Fumarate]
[out] 0.57

[in] Write down Tapped density measured for item CC#CC(=O)N1CCC[C@H]1c1nc(-c2ccc(C(=O)Nc3ccccn3)cc2)c2c(N)nccn12.O=C(O)/C=C\C(=O)O [Maleate]
[out] 0.45

###

List of Bulk density values.
Assay: Bulk and tapped density of salts
Assay type: physicochemical
Conditions: 10 gram sample
Show the value, then the unit it is measured in.

Reference set (3 entries):
CC#CC(=O)N1CCC[C@H]1c1nc(-c2ccc(C(=O)Nc3ccccn3)cc2)c2c(N)nccn12.O=C(O)C(O)C(O)C(=O)O [L-Tartrate] = 0.29 g/mL
CC#CC(=O)N1CCC[C@H]1c1nc(-c2ccc(C(=O)Nc3ccccn3)cc2)c2c(N)nccn12.O=C(O)/C=C/C(=O)O [Fumarate] = 0.45 g/mL
CC#CC(=O)N1CCC[C@H]1c1nc(-c2ccc(C(=O)Nc3ccccn3)cc2)c2c(N)nccn12.O=C(O)/C=C\C(=O)O [Maleate] = 0.35 g/mL

Let us move to another entry and its Bulk density.
[in] Write down Bulk density measured for item CC#CC(=O)N1CCC[C@H]1c1nc(-c2ccc(C(=O)Nc3ccccn3)cc2)c2c(N)nccn12.O=P(O)(O)O [Phosphate]
[out] 0.33 g/mL

// provenance: patent US20220177476A1
